What PBM E-score was measured for each of the following?
# system-name: Yer064c (UniProt P40041)
# Sequence: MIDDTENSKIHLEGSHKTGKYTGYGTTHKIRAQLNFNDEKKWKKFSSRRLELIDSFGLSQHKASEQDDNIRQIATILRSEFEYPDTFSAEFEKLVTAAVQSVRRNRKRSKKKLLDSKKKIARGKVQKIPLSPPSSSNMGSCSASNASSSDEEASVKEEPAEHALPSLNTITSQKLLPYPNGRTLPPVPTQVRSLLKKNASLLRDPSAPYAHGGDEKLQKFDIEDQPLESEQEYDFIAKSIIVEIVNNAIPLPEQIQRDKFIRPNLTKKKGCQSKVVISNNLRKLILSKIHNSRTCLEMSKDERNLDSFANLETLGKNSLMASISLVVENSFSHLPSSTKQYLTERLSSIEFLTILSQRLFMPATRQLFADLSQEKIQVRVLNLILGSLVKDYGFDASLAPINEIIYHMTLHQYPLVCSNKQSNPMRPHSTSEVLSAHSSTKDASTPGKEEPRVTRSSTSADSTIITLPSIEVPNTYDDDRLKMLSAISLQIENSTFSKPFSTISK
# experiment-summary: PBM E-score (8-mer binding enrichment) (E-score (-0.5 to 0.5)); higher = stronger / more preferred TF binding
# setup-conditions: protein concentration: 200 nM; construct: GST-full length
Whole data set: some 33,000 sequences, median “E-score (-0.5 to 0.5)” near -0.036, cut for the highest 2% near 0.37. What follows is part of a selection rich in the highest values, with near analogues and random picks from the rest.
In your answer, state the number alone without any accompanying words.

Qu. Report PBM E-score for GGTCATTA
Ans. -0.0121

Qu. Return PBM E-score (reported value) for this sequence: AGCCACTC
Ans. 0.0575

Qu. Supply recorded PBM E-score for AATCATCG here.
Ans. 0.439

Qu. Supply PBM E-score value. Item: TGCCCCAA
Ans. 0.0126

Qu. Answer with reported PBM E-score of GTGGGTTA
Ans. 0.103

Qu. Dear colleague, please send me the reported PBM E-score for GGTCAGCA when you can.
Ans. -0.0951

Qu. In one line, give reported PBM E-score of the entry GGGAGTAA .
Ans. 0.00383

Qu. Provide PBM E-score value for the following sequence: GGCCGTCA
Ans. -0.262

Qu. Let me know recorded PBM E-score for AGTCATTA , thanks.
Ans. 0.487

Qu. Please indicate PBM E-score recorded for CAGACTCA
Ans. 0.396

Qu. State, in one line, measured PBM E-score of ACTCAGCC
Ans. 0.335

Qu. Output measured PBM E-score for this item: AAAACTCT
Ans. -0.168

Qu. Please report the measured PBM E-score for CTATAGTA
Ans. 0.0624

Qu. Report PBM E-score, nothing else, for this sequence: GAGACTGC
Ans. 0.217

Qu. Identify measured PBM E-score associated with ACCTGACC
Ans. -0.13

Qu. Input CCTTCGCA , output reported PBM E-score.
Ans. -0.293

Qu. Give PBM E-score for the following sequence: CCCCCCAA
Ans. -0.315

Qu. Identify PBM E-score associated with the sequence ATCAGAAC
Ans. 0.127

Qu. Consider the sequence ACCGCGGG . State its measured PBM E-score.
Ans. 0.0814

Qu. Identify measured PBM E-score associated with CATCATCA
Ans. 0.161

Qu. Name the recorded PBM E-score of the item GAGTCGGC in your answer.
Ans. 0.412

Qu. Identify PBM E-score associated with the sequence GAAGACTC
Ans. 0.446

Qu. Give reported PBM E-score value for AATCATCT
Ans. 0.453

Qu. Write down PBM E-score measured for item CGTGGACA
Ans. -0.323

Qu. Determine from records and report PBM E-score for CGTCATTA
Ans. -0.0609

Qu. Note down PBM E-score recorded for ACGAGTCC
Ans. 0.289

Qu. Give recorded PBM E-score. AGTCATTG
Ans. 0.475

Qu. Note PBM E-score for the sequence shown: CCTCCCCC
Ans. -0.224

Qu. Give me measured PBM E-score, please, for this sequence: CGGAGTCC
Ans. 0.307

Qu. Give the reported value of PBM E-score for this record: CCCGGACG
Ans. -0.193

Qu. Note down PBM E-score recorded for CCCACGTC
Ans. -0.157

Qu. Name the recorded PBM E-score of the item AAGACTCT in your answer.
Ans. 0.425

Qu. Report PBM E-score for GAGTCGGA
Ans. 0.395

Qu. Report PBM E-score, nothing else, for this sequence: CAAAATCC
Ans. 0.087

Qu. Tell me PBM E-score reported for CAGAAGGA
Ans. -0.151

Qu. Supply measured PBM E-score of AGCCATTG in your reply.
Ans. 0.247

Qu. Please look at this sequence and report its PBM E-score: AATAGCTA
Ans. -0.0209

Qu. Identify the reported PBM E-score for the following entry. GACTATGA
Ans. 0.435

Qu. Provide one value: measured PBM E-score of CAAGACTC
Ans. 0.429

Qu. Look up PBM E-score of CATTCTAC and report it.
Ans. -0.179

Qu. Name the recorded PBM E-score of the item GCAGAACC in your answer.
Ans. -0.118

Qu. Could you please provide reported PBM E-score for CTTCTGTA ? Thanks!
Ans. -0.0492

Qu. Give reported PBM E-score value for ACGAGTCA
Ans. 0.48

Qu. Using the record for AGTCATTC , state its measured PBM E-score.
Ans. 0.482

Qu. Assign PBM E-score to the following record: AAGACTGC
Ans. 0.137

Qu. Please report PBM E-score for the following sequence: GGTGTCGA
Ans. 0.046

Qu. For the sequence GAGATAGA , give its reported PBM E-score.
Ans. -0.206

Qu. Please report the measured PBM E-score for AGCTGACG
Ans. -0.134

Qu. In one line, give reported PBM E-score of the entry GAGAGGAA .
Ans. -0.0878

Qu. Answer with the recorded PBM E-score of CGCTATTC only.
Ans. -0.0435

Qu. Provide PBM E-score value for the following sequence: TACTATGA
Ans. 0.318

Qu. Retrieve PBM E-score measured for CGAGGGAA and print it.
Ans. -0.0997

Qu. For TAATCATA , write its PBM E-score.
Ans. 0.457

Qu. Respond only with PBM E-score recorded for CGTCAGCA
Ans. -0.0315

Qu. Indicate the recorded PBM E-score value for this sequence: ACATCATA
Ans. 0.107

Qu. Tell me PBM E-score reported for CAGTCGTA
Ans. 0.265

Qu. For ACCTGACT , write its PBM E-score.
Ans. 0.44

Qu. Give the reported value of PBM E-score for this record: ATTGACCA
Ans. -0.0765

Qu. Assign PBM E-score to the following record: CAGACTCC
Ans. 0.187

Qu. Dear colleague, please send me the reported PBM E-score for GAAGACCC when you can.
Ans. -0.0698

Qu. For AGTAAGTC , write its PBM E-score.
Ans. 0.354

Qu. Give reported PBM E-score value for AGTTAGCC
Ans. 0.127

Qu. Let me know recorded PBM E-score for AAGACTCC , thanks.
Ans. 0.387

Qu. Given CCATTACG , respond with its PBM E-score.
Ans. -0.038

Qu. State its PBM E-score for this sequence: ACGGATAA
Ans. -0.0519

Qu. Quick one: give measured PBM E-score for GAGACTAC
Ans. 0.36

Qu. Give PBM E-score for the following sequence: CTATAGCC
Ans. -0.0342

Qu. Output PBM E-score of AAAACCCT
Ans. -0.047
